Assay: Metabolic stability in human hepatic microsome
Type: in vitro ADME
Settings: microsomes, pH 7.4; human hepatic microsome, NADPH(+); read-out: CL NADPH(+)
Positions of bridges follow the written chain, without caps; N, C: chain ends. Non-standard residues stand in square brackets, D forms with d. Residues, ends and D or L forms follow the SMILES beside them. *: point of attachment. NMeF = CN[C@@H](Cc1ccccc1)C(=O)O; NMeL = CN[C@@H](CC(C)C)C(=O)O; NMeA = CN[C@@H](C)C(=O)O; Piperidide = C1CCN(*)CC1; dNMeA = CN[C@H](C)C(=O)O; Sar = CNCC(=O)O
MEASURE_NAME: microsomal CLint at 1 uM (µL/min/mg)
State the answer as a number, implicitly in µL/min/mg.

Look up and report measured microsomal CLint at 1 uM for this entry: CC(C)C[C@@H](C(=O)N[C@@H](C)C(=O)N1CCCCC1)N(C)C(=O)[C@H](C)N(C)C(=O)[C@@H]1CC(=O)N[C@H](C(C)C)C(=O)N(C)[C@@H](C)C(=O)N(C)[C@@H](CC(C)C)C(=O)N(C)[C@@H](CC(C)C)C(=O)N(C)CC(=O)N(C)[C@@H](Cc2ccccc2)C(=O)N[C@@H](C)C(=O)N(C)[C@@H](Cc2ccccc2)C(=O)N(C)[C@@H](CC(C)C)C(=O)N[C@@H]([C@@H](C)O)C(=O)N1 [DP-582] ([dV][NMeA][NMeL][NMeL][Sar][NMeF]A[NMeF][NMeL]TD[NMeA][NMeL]A-Piperidide; lactam N-11) 12

Now for the molecule whose microsomal CLint at 1 uM we want.
Look up and report measured microsomal CLint at 1 uM for this entry: CC(C)C[C@H]1C(=O)N[C@H](C(=O)N(C)[C@@H](Cc2ccccc2)C(=O)N[C@@H](C)C(=O)N2CCCCC2)CC(=O)N(C)[C@H](C)C(=O)N(C)[C@@H](CC(C)C)C(=O)N(C)[C@@H](C)C(=O)N[C@@H]([C@@H](C)O)C(=O)N[C@@H](Cc2ccccc2)C(=O)N(C)[C@@H](Cc2ccccc2)C(=O)N[C@@H](C(C)C)C(=O)N1C [DP-381] ([dNMeA][NMeL][NMeA]TF[NMeF]V[NMeL]D[NMeF]A-Piperidide; lactam N-9) 84
